biological target: Bifunctional epoxide hydrolase 2 (Homo sapiens, UniProt P34913); assay: Inhibition of recombinant human sEH expressed in baculovirus infected insect Sf9 cells using CMNPC as substrate assessed as 6-methoxy-2-naphthadehyde level after 10 mins by fluorescence assay
Sequence (P34913 whole entry): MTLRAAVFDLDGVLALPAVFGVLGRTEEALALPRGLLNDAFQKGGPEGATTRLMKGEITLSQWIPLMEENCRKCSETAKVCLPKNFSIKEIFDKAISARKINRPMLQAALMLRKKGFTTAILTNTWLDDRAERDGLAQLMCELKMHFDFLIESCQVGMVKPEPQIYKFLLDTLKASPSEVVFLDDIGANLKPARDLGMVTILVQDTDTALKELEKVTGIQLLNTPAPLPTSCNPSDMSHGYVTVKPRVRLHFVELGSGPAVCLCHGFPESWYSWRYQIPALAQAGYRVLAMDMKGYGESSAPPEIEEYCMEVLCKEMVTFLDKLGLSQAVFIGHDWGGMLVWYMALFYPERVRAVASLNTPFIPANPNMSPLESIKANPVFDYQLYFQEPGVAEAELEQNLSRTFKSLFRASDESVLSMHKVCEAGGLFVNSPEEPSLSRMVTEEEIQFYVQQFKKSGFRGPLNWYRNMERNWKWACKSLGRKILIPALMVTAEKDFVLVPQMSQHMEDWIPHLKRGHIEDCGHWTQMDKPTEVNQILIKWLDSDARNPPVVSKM
Value Type: IC50 (µM)

// below: answered compounds
INSERT INTO assay_data (compound, value_type, units_symbol, recorded_number) VALUES
  ('CCOP(=O)(OCC)C(Nc1ccc(CNC(=O)C23CC4CC(CC(C4)C2)C3)cc1)c1ccc(F)cc1 (stereo not given)', 'IC50', 'µM', 0.12),
  ('CCOP(=O)(OCC)C(Nc1ccc(CNC(=O)C23CC4CC(CC(C4)C2)C3)cc1)c1ccncc1 (stereo not given)', 'IC50', 'µM', 0.185),
  ('CCOP(=O)(OCC)C(Nc1ccc(CNC(=O)NC23CC4CC(CC(C4)C2)C3)cc1)C(C)(C)C (stereo not given)', 'IC50', 'µM', 0.00096),
  ('CCOP(=O)(OCC)C(Nc1ccc(CNC(=O)C23CC4CC(CC(C4)C2)C3)cc1)c1ccc(C(=O)OC)cc1 (stereo not given)', 'IC50', 'µM', 0.23);

1 = CC(C)OP(=O)(OC(C)C)C(Nc1ccc(CNC(=O)C23CC4CC(CC(C4)C2)C3)cc1)C(C)(C)C (stereo not given)
2 = CCOP(=O)(OCC)C(Nc1ccc(NC(=O)C23CC4CC(CC(C4)C2)C3)cc1)C(C)(C)C (stereo not given)
3 = CCCCOP(=O)(OCCCC)C(Nc1ccc(CNC(=O)NC23CC4CC(CC(C4)C2)C3)cc1)C(C)(C)C (stereo not given)
4 = CC(C)OP(=O)(OC(C)C)C(Nc1ccc(CNC(=O)NC23CC4CC(CC(C4)C2)C3)cc1)C(C)(C)C (stereo not given)
5 = CCCC(Nc1ccc(CNC(=O)C23CC4CC(CC(C4)C2)C3)cc1)P(=O)(OCC)OCC (stereo not given)
Prompt line: Could you please sort these 5 entries by IC50 from high to low? # output: labels, in the requested order
Response line: 5, 2, 1, 3, 4
(5: 0.058 µM, 2: 0.037 µM, 1: 0.0067 µM, 3: 0.003 µM, 4: 0.0017 µM)

a = CCOP(=O)(OCC)C(CC(C)(C)C)Nc1ccc(CNC(=O)C23CC4CC(CC(C4)C2)C3)cc1 (stereo not given)
b = CCOP(=O)(OCC)C(Nc1ccc(CNC(=O)C2CCCCC2)cc1)C(C)(C)C (stereo not given)
Prompt line: Would you let me know which has the greater IC50 value, a or b ? Refer to your chosen item by its label in the answer.
Response line: a
(a: 0.041 µM, b: 0.023 µM)

----------
test: Aqueous solubility of the compound in sodium phosphate buffer at pH 7.4 at 25 +/- 1.5 degC by light scattering method; assay type: physicochemical
Value Type: solubility kinetic (µM)

// below: answered molecules
INSERT INTO assay_data (molecule, recorded_number) VALUES
  ('CCOP(=O)(OCC)C(Nc1ccc(CNC(=O)NC23CC4CC(CC(C4)C2)C3)cc1)C(C)(C)C (centres undefined)', 78),
  ('CCOP(=O)(OCC)C(Nc1ccc(CNC(=O)Cc2ccc3ccccc3c2)cc1)C(C)(C)C (centres undefined)', 78);

a = CCOP(=O)(OCC)C(Nc1ccc(CNC(=O)C23CC4CC(CC(C4)C2)C3)cc1)C(C)(C)C (centres undefined)
b = CCOP(=O)(OCC)C(Nc1ccc(CNC(=O)CC23CC4CC(CC(C4)C2)C3)cc1)C(C)(C)C (centres undefined)
Prompt line: Would you let me know which has the greater solubility kinetic value, a or b ? Refer to your chosen item by its label in the answer.
Response line: a
(a: 125 µM, b: 62 µM)

----------
target: Bifunctional epoxide hydrolase 2 (Homo sapiens); assay: Inhibition of recombinant human sEH expressed in baculovirus infected insect Sf9 cells using CMNPC as substrate assessed as 6-methoxy-2-naphthadehyde level after 10 mins by fluorescence assay
pIC50: −log10 of the molar value.
Value Type: pIC50

// below: answered compounds
INSERT INTO assay_data (compound, value_type, recorded_number) VALUES
  ('CCOP(=O)(OCC)C(Nc1ccc(CNC(=O)C23CC4CC(CC(C4)C2)C3)cc1)c1ccc(C(C)(C)C)cc1 (stereo not drawn)', 'pIC50', 6.72),
  ('CCOP(=O)(OCC)C(Nc1ccc(CNC(=O)C23CC4CC(CC(C4)C2)C3)cc1)c1ccc(C#N)cc1 (stereo not drawn)', 'pIC50', 6.97),
  ('CCOP(=O)(OCC)C(Nc1ccc(CNC(=O)C23CC4CC(CC(C4)C2)C3)cc1)c1ccc(C)cc1 (stereo not drawn)', 'pIC50', 6.89),
  ('CCOP(=O)(OCC)C(Nc1ccc(CNC(=O)C23CC4CC(CC(C4)C2)C3)cc1)C1CCCCC1 (stereo not drawn)', 'pIC50', 7.34);

1 = CCCCOP(=O)(OCCCC)C(Nc1ccc(CNC(=O)C23CC4CC(CC(C4)C2)C3)cc1)C(C)(C)C (stereo not drawn)
2 = CCOP(=O)(OCC)C(Nc1ccc(CNC(=O)C23CC4CC(CC(C4)C2)C3)cc1)C(=O)c1ccccc1 (stereo not drawn)
Prompt line: Min pIC50? 1 | 2 Refer to your chosen item by its label in the answer.
Response line: 2

----------
target: Bifunctional epoxide hydrolase 2 (Homo sapiens, UniProt P34913); experiment: Inhibition of recombinant human sEH expressed in baculovirus infected insect Sf9 cells using CMNPC as substrate assessed as 6-methoxy-2-naphthadehyde level after 10 mins by fluorescence assay
Value Type: IC50 (nM)

// below: answered molecules
INSERT INTO measurements (molecule, value_type, recorded_number) VALUES
  ('CC(C)(C)C(Nc1ccc(CNC(=O)NC23CC4CC(CC(C4)C2)C3)cc1)P(=O)(OCC(F)(F)F)OCC(F)(F)F (stereo not drawn)', 'IC50', 3.8),
  ('CCOP(=O)(OCC)C(Nc1ccc(CCC(=O)NC23CC4CC(CC(C4)C2)C3)cc1)C(C)(C)C (stereo not drawn)', 'IC50', 43),
  ('CCOP(=O)(OCC)C(Nc1ccc(CNC(=O)C23CC4CC(CC(C4)C2)C3)cc1)c1ccccc1 (stereo not drawn)', 'IC50', 45),
  ('CCOP(=O)(OCC)C(Nc1ccc(CNC(=O)CC23CC4CC(CC(C4)C2)C3)cc1)C(C)(C)C (stereo not drawn)', 'IC50', 1.9),
  ('CCOP(=O)(OCC)C(Nc1ccc(CNC(=O)C23CC4CC(CC(C4)C2)C3)cc1)c1ccc(OC)cc1 (stereo not drawn)', 'IC50', 199);

A = CCOP(=O)(OCC)C(Nc1ccc(CNC(=O)C23CC4CC(CC(C4)C2)C3)cc1)C(C)(C)C (stereo not drawn)
B = CC(C)COP(=O)(OCC(C)C)C(Nc1ccc(CNC(=O)C23CC4CC(CC(C4)C2)C3)cc1)C(C)(C)C (stereo not drawn)
Prompt line: Would you let me know which has the greater IC50 value, A or B ? Refer to your chosen item by its label in the answer.
Response line: B

----------
target: Bifunctional epoxide hydrolase 2 (Homo sapiens, UniProt P34913); assay: Inhibition of recombinant human sEH expressed in baculovirus infected insect Sf9 cells using CMNPC as substrate assessed as 6-methoxy-2-naphthadehyde level after 10 mins by fluorescence assay
Value Type: IC50 (nM)

// below: answered molecules
INSERT INTO assay_data (molecule, value_type, recorded_number) VALUES
  ('CC(C)COP(=O)(OCC(C)C)C(Nc1ccc(CNC(=O)NC23CC4CC(CC(C4)C2)C3)cc1)C(C)(C)C (centres undefined)', 'IC50', 1.8),
  ('CCOP(=O)(OCC)C(Nc1ccc(CNC(=O)c2ccc(OC(F)(F)F)cc2)cc1)C(C)(C)C (centres undefined)', 'IC50', 24),
  ('CCOP(=O)(OCC)C(Nc1ccc(CNC(=O)C23CC4CC(CC(C4)C2)C3)cc1)c1ccc2ccccc2c1 (centres undefined)', 'IC50', 186),
  ('CC(C)(C)C(Nc1ccc(CNC(=O)NC23CC4CC(CC(C4)C2)C3)cc1)P(=O)(OCc1ccccc1)OCc1ccccc1 (centres undefined)', 'IC50', 2.6),
  ('CCOP(=O)(OCC)C(Nc1ccc(CNC(=O)C2CCc3ccccc3C2)cc1)C(C)(C)C (centres undefined)', 'IC50', 3);

a = CC(C)(C)C(Nc1ccc(CNC(=O)C23CC4CC(CC(C4)C2)C3)cc1)P(=O)(OCc1ccccc1)OCc1ccccc1 (centres undefined)
b = CCOP(=O)(OCC)C(Nc1ccc(CNC(=O)Cc2ccc3ccccc3c2)cc1)C(C)(C)C (centres undefined)
c = CCOP(=O)(OCC)C(Nc1ccc(CCNC(=O)C23CC4CC(CC(C4)C2)C3)cc1)C(C)(C)C (centres undefined)
d = CCOP(=O)(OCC)C(Nc1ccc(CNC(=O)c2ccc3cc(O)ccc3c2)cc1)C(C)(C)C (centres undefined)
Prompt line: Could you please sort these 4 entries by IC50 from high to low? # output: labels, in the requested order
Response line: a, d, c, b
(a: 42 nM, d: 17 nM, c: 8.2 nM, b: 3.4 nM)
